assay: Phase I open-label, parallel-group, single oral dose pharmacokinetic study of dorzagliatin in ESRD and healthy subjects
Assay type: in vivo, human
run.parameters: human, plasma, po, 25 mg, Group H (healthy); single 25 mg oral dose, fasted; read-out: AUClast, u, LS mean

entry.smiles	result.units	AUC(0-t)
CC(C)C[C@@H](C(=O)Nc1ccn(C[C@@H](O)CO)n1)N1CC(Oc2ccccc2Cl)=CC1=O	ng·h/mL	124

====

assay: Phase I open-label, parallel-group, single oral dose pharmacokinetic study of dorzagliatin in ESRD and healthy subjects
Format: in vivo, human
run.parameters: human, plasma, po, 25 mg, Group P1 (ESRD); single 25 mg oral dose, fasted; plasma; read-out: AUCinf, LS mean
metric.name: AUC(0-inf) (ng·h/mL)

compound	endpoint.result
CC(C)C[C@@H](C(=O)Nc1ccn(C[C@@H](O)CO)n1)N1CC(Oc2ccccc2Cl)=CC1=O [dorzagliatin]	2070
